The measured values listed here are drawn from ChEMBL document CHEMBL3988442.

system: Plasmodium falciparum; experiment: Calibr Malaria Delayed Death Assay SOP; format: functional, organism-based; parameters: scale not given: in the data most compounds retested in dose-response had high values; details: concentration 4.99e-06 (unit not given; other assays of the set use mol/L)
The campaign covered roughly 38,000 compounds. About 1,200 (3.2%) showed an effect of 50% or more. The median lay at about -58%. Shown is part of a subset that was picked to be rich in strong results.
reportedEndpoint: Percent Effect (%)
One number for each entry, in %.

O=C1NCCCCC1Sc1ccccc1F (configuration not stated)	-25.7
Cc1cc(C(=O)N2CCCC2c2nnc3n2CCCCC3)on1 (configuration not stated)	-57.59
c1cnc(N2CCC3(COCc4cnc(N5CCOCC5)nc43)C2)nc1 (configuration not stated)	-59.23
Cc1cc(C)cc(NCCC(=O)NC2CCCCC2)c1	-32.74

Look at each molecule and report its Percent Effect.
1. O=C(NCc1c[nH]c(=O)[nH]c1=O)C1CCOc2ccccc2C1 (configuration not stated)
2. O=C(NCCSc1ccccc1F)NCc1cccnc1
3. Cc1ccc(Cl)cc1NC(=O)Nc1c[nH]c(=O)[nH]c1=O

Result:
-114.6
-28.43
-189.6

Provide Percent Effect for all items below, preserving their order.
1. Cc1cc(C(C)(O)CNC(=O)CCOCC(C)C)c(C)o1 (configuration not stated)
2. Fc1ccccc1Sc1ccccc1CNC1=NCCN1.I
3. CC(=O)c1cccc(OCc2cc(C(=O)N3CCCCO3)n[nH]2)c1
4. O=C1Nc2ccccc2/C1=C1\CCCCN1
5. COCCNC(=O)Cn1c(-c2ccc(Cl)cc2)nc(C)c(CCO)c1=O

Result:
[-34.27, 76.79, -55.13, -131, -30.51]

* * *

system: Plasmodium falciparum; experiment: Calibr Malaria Delayed Death Assay SOP; assay type: functional, organism-based; design: scale not given: in the data most compounds retested in dose-response had high values; conditions: concentration 4.99e-06 (unit not given; other assays of the set use mol/L)
Among all 38,000 compounds or so, about 1,200 (3.2%) showed an effect of 50% or more. The median lay at about -58%. This excerpt belongs to a sample that is enriched for strong results.
Threshold check on Percent Effect: at or above -60% gives true (1), strictly below gives false (0).

Known results for compounds:
Cc1cc(C)n(CC(=O)N(CC2CN(C)CCO2)c2nccs2)n1 (stereo not drawn)	false (0)
O=C(c1cccs1)N1CCc2ncc(Cn3cncn3)n2CC1	false (0)
CN(C)CC1CSCCCN1S(=O)(=O)Cc1ccc(C(F)(F)F)cc1 (stereo not drawn)	true (1)
Cc1ocnc1C(=O)N1CC[C@@H](O)[C@@H](O)[C@H](N2CCC(F)(F)CC2)C1	false (0)
O=S(=O)(C1CC1)N1CCc2ncnc(N3CCOCC3)c2CC1	false (0)
CCS(=O)(=O)N1CCc2ccc(NC(=O)Nc3cccc(C)c3)cc21	true (1)
CC(C)N(C)Cc1cnc2n1CCN(C(=O)c1cccs1)C2	true (1)
CN(C)CC1CSCCCN1C(=O)c1ccc(C(C)(C)C)cc1 (stereo not drawn)	true (1)

Task: I'd appreciate it if you could say whether CC(NCc1ccc(C(C)(C)C)cc1)c1ccc(S(C)(=O)=O)cc1 (stereo not drawn) has Percent Effect at least equal to -60%.
Result: true (1)

Task: Can CNS(=O)(=O)c1cccc(C(C)NCc2cccc(O)c2)c1 (stereo not drawn) be said to have Percent Effect at or above -60%?
Result: true (1)

Task: Please tell me: is the compound `CCCNC(=O)c1c(-n2cnnn2)sc2c1CCC2` at or over -60% in terms of Percent Effect?
Result: true (1)

Task: Hi, just wondering whether CNS(=O)(=O)c1cccc(C(C)NCc2ccsc2)c1 (stereo not drawn) shows Percent Effect of -60% or higher.
Result: true (1)

Task: Is Percent Effect at least -60%? Consider CCN1CCCCC1C(=O)N1CCC(OCCOC)CC1 (stereo not drawn)
Result: false (0)

Task: Check this compound for Percent Effect at or above -60%: CCC(NC(=O)CNCC(F)(F)F)c1cc(F)ccc1F (stereo not drawn)
Result: false (0)

Task: Check if Percent Effect >= -60% (inclusive). Item: O=C(C1CCC1)N1C(CN2CCOCC2)[C@]2(O)CC[C@H]1CC2 (stereo partly drawn)
Result: false (0)

Task: Please indicate if the recorded Percent Effect for O=c1cc(N2CCCCC2)cnn1CC(O)C(F)(F)F (stereo not drawn) meets or exceeds -60%.
Result: false (0)

* * *

system: Plasmodium falciparum; assay: Calibr Malaria Delayed Death Assay SOP; type: functional, organism-based; set-up: scale not given: in the data most compounds retested in dose-response had high values; conditions: concentration 4.99e-06 (unit not given; other assays of the set use mol/L)
The whole screen tested about 38,000 compounds, of which about 1,200 (3.2%) showed an effect of 50% or more. The median lay at about -58%. The list comes from a sample in which strong results are over-represented; it also holds close analogues and randomly drawn compounds.
reportedEndpoint: Percent Effect (%)
Numbers only, in %.

Example entries begin here.
Cc1ccc(N2CC[C@H]3CO[C@H](CN(C)Cc4ccco4)[C@H]3C2)nn1.O=C(O)C(F)(F)F.O=C(O)C(F)(F)F	-41.04
O=C(O)C(F)(F)F.O=C(O)C(F)(F)F.c1cnc(NC[C@H]2OC[C@@H]3CCN(Cc4ccsc4)C[C@@H]32)nc1	-30.65
O=C(NC[C@H]1OC[C@@H]2CCN(Cc3ccco3)C[C@@H]21)c1ccsc1.O=C(O)C(F)(F)F	-100.7

Turning now to a further record.
Task: Name the recorded Percent Effect for `CN(Cc1ccco1)C[C@@H]1OC[C@H]2CN(Cc3nccs3)CC[C@H]21.O=C(O)C(F)(F)F.O=C(O)C(F)(F)F` .
Result: -54.97

* * *

tested on: Plasmodium falciparum; assay: Calibr Malaria Delayed Death Assay SOP; format: functional, organism-based; set-up: scale not given: in the data most compounds retested in dose-response had high values; conditions: concentration 4.99e-06 (unit not given; other assays of the set use mol/L)
Among all 38,000 compounds or so, about 1,200 (3.2%) showed an effect of 50% or more. The median lay at about -58%. This is one part of a sample in which strong results are shown more often than they occur.
For each record, write down the corresponding Percent Effect.
One number for each entry, in %.

Below, each entry is followed by its recorded Percent Effect result.
Cc1ccc(CN2CCC3(CCCN(Cc4ccc(F)c(F)c4)C3)C2)o1 (centres undefined)	25.14
CCCn1ncc(-c2ccnc(NC3CC(C)(C)NC(C)(C)C3)n2)c1C	66.75
O=C1N(Cc2ccc(F)c(F)c2)CCCC1(O)CNCc1ncc[nH]1 (centres undefined)	-127.8
O=C(NC1CCS(=O)(=O)C1)c1cc(Sc2ncccn2)ccn1 (centres undefined)	-115.2
Cc1noc(C)c1C(C)NC(=O)N1CCN(c2cccs2)CC1 (centres undefined)	-38.18

# batch: return Percent Effect for each of the 8 molecules below
1. CCCn1ncc(-c2ccnc(NC3CCSC3)n2)c1C (centres undefined)
2. Cc1cnn(CCC(=O)N2CCCN(c3ccccc3C#N)CC2)c1
3. Cc1cccc(-c2nc(N)nc3c2CN(C(=O)C2CCCC2)C3C)c1 (centres undefined)
4. CC(c1ccc(S(C)(=O)=O)cc1)N(C)C(=O)c1ccccc1I (centres undefined)
5. CN1CCCCCC1C(=O)N1CCN(c2ccccc2C#N)CC1 (centres undefined)
6. Cc1c[nH]c(CN(C)C(=O)C(C)(C)NC(=O)c2cccs2)n1
7. COCC(=O)N1CCCC1c1csc(Nc2cnccn2)n1 (centres undefined)
8. CCC(=O)N1CCCC1c1csc(Nc2cnccn2)n1 (centres undefined)

Result:
1: -9.069; 2: -36.97; 3: 35.57; 4: -43.05; 5: 59.17; 6: -87.6; 7: -55; 8: -46.83

Below is a list of molecules. For each, state its recorded Percent Effect.
1. CN1CCCCCC1C(=O)N1CCCN(c2ccccc2)CC1 (centres undefined)
2. Fc1ccc(CN2CCCC3(CCN(Cc4ncc[nH]4)C3)C2)cc1F (centres undefined)
3. CN1CCC(C(=O)N2CCCN(c3cccnn3)CC2)C1 (centres undefined)
4. CN(Cc1nccn1CC(F)(F)F)C(=O)c1ccc(F)cc1F
5. O=C(NCCc1csc(-c2ncccn2)n1)c1cnn2c1CCCC2
6. CC(=O)NC1CCN(c2c(C#N)cnc3c(C)cc(F)cc23)CC1
7. CCCn1ncc(-c2ccnc(N[C@@H]3C[C@@H]4CC[C@H]3C4)n2)c1C

Result:
[60.61, 59.25, -4.513, -38.32, -31.93, 7.696, -33.21]

Answer for every listed entry: what is its Percent Effect? The entries follow.
1. CC(NC(=O)N1CCN(c2cccs2)CC1)c1ccc(C#N)cc1 (centres undefined)
2. Cc1ccccc1SCC(=O)NC1CCC(O)CC1 (centres undefined)
3. CC(NC(=O)N1CCN(c2cccs2)CC1)c1ccncc1 (centres undefined)
4. CC(NCCc1nccn1Cc1ccccc1)c1ccsc1 (centres undefined)

Result:
1: 61; 2: -39.35; 3: -36.24; 4: 82.98
